test system: distinct kinases tested excluding mutant variants, typically 359 or 386 kinases; experiment: Kinase selectivity score from competition binding panel; settings: compound at 10 μM; fraction of kinases with inhibition of 90% or greater
measured_attribute: S-Score: S(10) at 10 μM

compound="Cc1cc(Nc2nc(C(O)c3ccc(F)cc3)nc3scc(C)c23)n[nH]1 (racemic)" meas_value="A (A ≦ 0.3)"
compound=Cc1cc(Nc2nc(C(=O)c3ccc(F)cc3)nc3c(C)csc23)n[nH]1 meas_value="A (A ≦ 0.3)"
compound=Cc1cc(Nc2nc(C(F)(F)c3ccc(F)cc3)nc3ccsc23)n[nH]1 meas_value="C (0.4 < C ≦ 0.5)"
compound="Cc1cc(Nc2nc(C(O)c3ccc(F)cc3)nc3c(C)csc23)n[nH]1 (centres unmarked)" meas_value="A (A ≦ 0.3)"
compound="Cc1cc(Nc2nc(C(O)c3ccc(F)cc3)nc3sc(C)cc23)n[nH]1 (racemic)" meas_value="C (0.4 < C ≦ 0.5)"
compound=CC(C)(C)c1cc2nc(C(=O)c3ccc(F)cc3)nc(Nc3cc[nH]n3)c2s1 meas_value="A (A ≦ 0.3)"
compound="Cc1cc(Nc2nc(C(O)c3ccc(F)cc3)nc3cc(C)sc23)n[nH]1 (racemic)" meas_value="B (0.3 < B ≦ 0.4)"
compound=Cc1cc(Nc2nc(C(=O)c3ccc(F)cc3)nc3sccc23)n[nH]1 meas_value="B (0.3 < B ≦ 0.4)"
compound="Cc1cc(Nc2nc(C(O)c3ccc(F)cc3)nc3sccc23)n[nH]1 (racemic)" meas_value="B (0.3 < B ≦ 0.4)"
compound="Cc1cc2c(Nc3cc[nH]n3)nc(C(O)c3ccc(F)cc3)nc2s1 (racemic)" meas_value="A (A ≦ 0.3)"
compound=Cc1cc(Nc2nc(C(=O)c3ccc(F)cc3)nc3cc(C)sc23)n[nH]1 meas_value="B (0.3 < B ≦ 0.4)"
